Test: protein stability index of a GFP-peptide fusion (GPS, HEK-293T) (PSI 1-6); higher = more stable;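 also: 24-mer peptide tiles fused after GFP, lentivirally expressed, FACS-sorted into six equal bins by GFP/DsRed ratio, decoded by Illumina sequencing, PSI is the read-weighted mean bin number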
Conditions: treatment: MLN4924 1 uM, 8 h; c terminus: a fixed tail appended
This listing pairs sequences with measured protein stability index.
measureName: protein stability index

- recordSequence: "AAASAKDIYYNNMEEVCGGEKPYL [ATL3]"
  observedResult: 4.01
- recordSequence: "ARGIAGEKFDIVKKWGINTYKCTK [ARFIP2]"
  observedResult: 3.27
- recordSequence: "GTELIQTPLASSTDHQTPPTSPVQ [HDAC6]"
  observedResult: 5.25
- recordSequence: "HSFFPDAFDYNSLSPTQRQKNFEL [SMTNL2]"
  observedResult: 3.44
- recordSequence: "SVSLQINCQSVAQMNLLQKYSLLK [DLC1]"
  observedResult: 2.13
- recordSequence: "ITAGGENVPPIPVETLVKKKIPII [ACSBG2]"
  observedResult: 3.96
- recordSequence: "LCSSPLEAETPPNGPDCGYGSFHQ [ATE1]"
  observedResult: 4.24
- recordSequence: "PLAVENQAGGEGAGGELGISLNMC [PBXIP1]"
  observedResult: 4.12
- recordSequence: "QSGRDLQQYQSQAKQLFRKLNEQS [SEC22B]"
  observedResult: 3.83
- recordSequence: "VPLARSLQISEELLSRNQLSTAAS [LCOR]"
  observedResult: 3.73
- recordSequence: "MQENITKVIERGERLDELQDKSES [VAMP4]"
  observedResult: 5.05
- recordSequence: "NPFKERICRVFSTSPAKDSLSFED [CIB1]"
  observedResult: 2.75
- recordSequence: "PHTPGKPTSSCTSRSAPPGLQAPP [FOXJ1]"
  observedResult: 4.86
- recordSequence: "SESRKPTVSIMEPGETRRNSYPRA [TRIM29]"
  observedResult: 4.43
- recordSequence: "VIVPKEEGVISVSEDRTVRVWLKR [WDFY2]"
  observedResult: 3.17
- recordSequence: "KSKSITNLAAAAADIPQDQLVVMH [BTBD10]"
  observedResult: 4.64
- recordSequence: "RPATAADCSDILRLIKELAKYEYM [SAT1]"
  observedResult: 2.48
- recordSequence: "EELRQEWEAKQEKIKSEEIEITFS [FAM50A]"
  observedResult: 4.95
- recordSequence: "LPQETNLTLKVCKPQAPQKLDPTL"
  observedResult: 3.91
- recordSequence: "IYRHRIPSTICFGQGAARGFKSNK [ZNF511]"
  observedResult: 3.64
- recordSequence: "EQHNWNIEAAVQDRLNEQEGVPSV [FAF2]"
  observedResult: 5.17
- recordSequence: "AETQPQNPPAQPAPNAWQVIKGVL [CLPTM1]"
  observedResult: 3.78
- recordSequence: "YLPRDFSTYRPLPDPSVWSRRYTE [MYORG]"
  observedResult: 2.82
- recordSequence: "DVLKYSYVRLVCKDVRAPSRPAVG [ZSWIM9]"
  observedResult: 1.83
- recordSequence: "HKVKAEEEKKAKVAPPAKQAQQKK [BRD3]"
  observedResult: 5.5
- recordSequence: "EFQPAKCTDKENALKLFPVQPCSA [FAM189A2]"
  observedResult: 4.03
- recordSequence: "TKCRKRKLERIARLEDKVKTLKAE [JUNB]"
  observedResult: 4.42

* * *

Assay: protein stability index of a GFP-peptide fusion (GPS, HEK-293T) (PSI 1-6); higher = more stable
Conditions: treatment: DMSO; c terminus: a fixed tail appended
Given measured protein stability index, output Met if it is greater than or equal to 4 and Not met if not.

- recordSequence: "HNQIAIYAHQPRTADEIPMEPGDI [FUT8]"
  classLabel: "Met"
- recordSequence: "CNECAKLIIQAGIKEVIFMSDKYH [DCTD]"
  classLabel: "Not met"
- recordSequence: "ALLIVDSATALYRTDYSGRGELSA [RAD51]"
  classLabel: "Not met"
- recordSequence: "TKCRKRKLERIARLEDKVKTLKAE [JUNB]"
  classLabel: "Met"
- recordSequence: "RAKEEERLNKLRLESEGSPETLTN [HACD3]"
  classLabel: "Met"
- recordSequence: "SEIPRGVRVALDYEAGQVTLHNAQ [TRIM15]"
  classLabel: "Met"
- recordSequence: "GHRPPPARSGHRCVADNTNLYVFG [KLHDC10]"
  classLabel: "Not met"
- recordSequence: "VEEVVYDLSIRGFNKETAAACVEK [TSN]"
  classLabel: "Met"
- recordSequence: "QKYDPDKDEWHKVFDLPESLGGIR [KLHL13]"
  classLabel: "Not met"
- recordSequence: "GPVGTDFKPLNSTPATTTEPPKPT [ZNF207]"
  classLabel: "Met"
- recordSequence: "FEYSTIKCRDLSALMHELSNDGAR [BTBD10]"
  classLabel: "Not met"
- recordSequence: "IKECLSKGTFSDVTFKLDDGAISA [RHOBTB1]"
  classLabel: "Not met"
- recordSequence: "APDAHFTVDKQNISLWPREPPPKS [CD207]"
  classLabel: "Met"
- recordSequence: "RAMRYYYKREILERVDGRRLVYKF [ELF3]"
  classLabel: "Not met"
- recordSequence: "IHDSEFKEYTTRTQAPPSVILGVT [DENND6A]"
  classLabel: "Not met"
- recordSequence: "NVSVMHKSLDNMPNDEHWKALSRK [FBXO33]"
  classLabel: "Met"
- recordSequence: "ELAYLRKNHEEEMLALRGQTGGDV [KRT16]"
  classLabel: "Met"
- recordSequence: "LWDTSGQGRFCTIFRSYSRGAQGV [RAB40A]"
  classLabel: "Not met"
- recordSequence: "ERYFIPVSCFLTFNIFDWLGRSLT [SLC29A1]"
  classLabel: "Not met"
- recordSequence: "QHLDPQGAQELLEFTIRDLQRLGE [INTS4]"
  classLabel: "Not met"
- recordSequence: "PPPPRSRGPPRGLRGGRGGSGGTR [RBMX]"
  classLabel: "Met"
- recordSequence: "ILEDMRCQYEALVENNRRDVEAWF [KRT36]"
  classLabel: "Not met"
- recordSequence: "SEAAIGGAMLGQTTSEEAVGGATP [HDAC6]"
  classLabel: "Met"
- recordSequence: "LVVASGVIYCLGGYDGLNILNSVE [KLHL12]"
  classLabel: "Not met"
- recordSequence: "LLPKGSKEEQRDYVFYLAVGNYRL [FIS1]"
  classLabel: "Not met"
- recordSequence: "IDDRYGDLDSRTDSDIPEIPPSSD [CDS1]"
  classLabel: "Met"
- recordSequence: "HYANLNGLYGSTVDHQGVSWYHWK [TNXB]"
  classLabel: "Not met"

* * *

Quick reference for protein stability index among some sequences
Assay: protein stability index of a GFP-peptide fusion (GPS, HEK-293T) (PSI 1-6); higher = more stable
Settings: treatment: DMSO; c terminus: a fixed tail appended

- recordSequence: "SKAAAGKMNLYESFAQATQLGDLH [INTS3]"
  protein stability index: 3.63
- recordSequence: "SIEEILEEQRVEQQTKLEAEKLKV [LSM1]"
  protein stability index: 5.11
- recordSequence: "SSNVSLSLFVLDQNDNAPEILYPA [PCDHGA10]"
  protein stability index: 2.48
- recordSequence: "VGYGDMYPVTIGGKIVGSLCAIAG [KCNA1]"
  protein stability index: 2.09
- recordSequence: "SGYALAEDGKRCVAVDYCASENHG [MATN2]"
  protein stability index: 4.28
- recordSequence: "HCPDCGQQWFPSLELGHWLYQTEL [TOR1AIP2]"
  protein stability index: 2.31
- recordSequence: "GQALLTHLYQSSARRYAGPLHHQT [ELAVL3]"
  protein stability index: 2.4
- recordSequence: "FQFLSWPDYGVPSSAASLIDFLRV [PTPN9]"
  protein stability index: 2.7
- recordSequence: "EEHLSPLDFLHSANFSLGSINQRL [RNF180]"
  protein stability index: 3.17
- recordSequence: "THLEAQNRIKGCHDHLTLSVSRPE [PDLIM4]"
  protein stability index: 3.57
- recordSequence: "VAQLEDRRSTTDLRGTQFDYERGK [ZSWIM9]"
  protein stability index: 5.03
- recordSequence: "HKVKAEEEKKAKVAPPAKQAQQKK [BRD3]"
  protein stability index: 5.5
- recordSequence: "EPSSDPSLLGEPCAGPGFTHNIAH [SPAG8]"
  protein stability index: 4.65
- recordSequence: "IGFGVYFEWTDSPNTAVSVHVSES [ACBD3]"
  protein stability index: 2.64
- recordSequence: "CFQSCLCCCCYQSKSLMTSVPMNG [EDNRA]"
  protein stability index: 2.31
- recordSequence: "FSSYNKQDNNCHFDAALVSFINFF [SLC6A17]"
  protein stability index: 2.81
- recordSequence: "LVLKVLWNDFLMCYSSRPLLCWSV [SLC19A2]"
  protein stability index: 3.19
- recordSequence: "GKKKISKADIGAPSGFKHVSHVGW [WAS]"
  protein stability index: 3.06
- recordSequence: "CVQCGKSYSQSSNLFRHQRRHNAE [ZNF24]"
  protein stability index: 4
- recordSequence: "LNQKGTAVETEGSGSRHPPWARGC [SLC2A12]"
  protein stability index: 3.98
- recordSequence: "NTLRCQLGDRLNVEVDAAPAVDLN [KRT33B]"
  protein stability index: 4.47
- recordSequence: "ILVMKHNYSQDAADACDIDEIEEV [NETO1]"
  protein stability index: 4.11
- recordSequence: "TCFVRDGKTYCKRDYVRLFGIKCA [ISL2]"
  protein stability index: 2.46
- recordSequence: "TPNSAGGPGAHILRRKSPASGQGP [ADAMTS4]"
  protein stability index: 4.55
- recordSequence: "RTAQSEETRVWHRRDGKWQIVHFH [CAMK2A]"
  protein stability index: 3.15
- recordSequence: "VRMSADAMLKALLGSKHKVCMDLR [TNNI2]"
  protein stability index: 2.25
- recordSequence: "FDFDDDGTLNREDLSRLVNCLTGE [CIB1]"
  protein stability index: 4.21
- recordSequence: "KLRFNRKKKGMYRKAITEAANAAR [PWWP2B]"
  protein stability index: 3.42
- recordSequence: "RVVDGTPCSPDSSSVCVQGRCIHA [ADAMTS4]"
  protein stability index: 4.21
- recordSequence: "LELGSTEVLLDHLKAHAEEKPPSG [PLAGL1]"
  protein stability index: 4.46
- recordSequence: "PPLLGTFPRDHTSLALVQNGDVSA [ANKRD40]"
  protein stability index: 4.57
- recordSequence: "LVWRNSIRSSFISSLSFFLKKMGK [FBXO39]"
  protein stability index: 2.65
- recordSequence: "EDRIVTQNRVFAYLCKRVPHTVLD [CEP70]"
  protein stability index: 2.27
- recordSequence: "VAFGIEADDESLLRTSNGQPVKTA [DNAAF3]"
  protein stability index: 4.47
- recordSequence: "TSSTFGLQDGNLRAPHKESTLPRS [CHCHD6]"
  protein stability index: 4.42
- recordSequence: "SVSLQINCQSVAQMNLLQKYSLLK [DLC1]"
  protein stability index: 2.2
- recordSequence: "EWAALGNMSKEDAMVEFVKLLNRC [ACBD3]"
  protein stability index: 2.48
- recordSequence: "ILRAIGKGSFGKVCIVQKNDTKKM [STK32A]"
  protein stability index: 2.4
- recordSequence: "AASVRMRGEAEAFAIGARARAEAE [FLOT1]"
  protein stability index: 5.32
- recordSequence: "TAERITQLSAPHCKKLSLELGGKN [ALDH8A1]"
  protein stability index: 3.75
- recordSequence: "CSSSDDDTDVDMEGLRRRRGREAG [PBXIP1]"
  protein stability index: 5.3
- recordSequence: "GRHLELANQKLSEKLAAGALPHIN [CCDC3]"
  protein stability index: 3.46
- recordSequence: "LMSGCSSELKNRMEYALNMLLQRC [PLK2]"
  protein stability index: 2.04
- recordSequence: "LVCTFSSQVCRVAYEIMQTLHPDA [FUT8]"
  protein stability index: 2.95
- recordSequence: "LFYFFLYQYCSIHCSDRKQVRNIA [CSTF3]"
  protein stability index: 2.92
- recordSequence: "AHLPKAQLSGYAVEATRNQSQLQR [FBF1]"
  protein stability index: 4.21
- recordSequence: "KQQREKTRWLNSGRGDEASEEGQN [ADD1]"
  protein stability index: 5.54
- recordSequence: "SVNEHTEEGESLLCLACSAGYYEL [ANKRD17]"
  protein stability index: 2.64
- recordSequence: "EFKRLASSKAHTSRFISANLPCNK [PTPRD]"
  protein stability index: 2.88
- recordSequence: "PLAVENQAGGEGAGGELGISLNMC [PBXIP1]"
  protein stability index: 4.22
- recordSequence: "PNGVQLSPAEDFVLVAETTMARIR [APMAP]"
  protein stability index: 3.21
- recordSequence: "TTEVNAWLVHRDPEGSVSGSQPNS [NFE2L1]"
  protein stability index: 4.33
- recordSequence: "LAEWEANPLICPVCTKYNLRITSG [RPAIN]"
  protein stability index: 3.35
